Data origin, for the record: BindingDB's records for patent US11352356

- tgt: Plasma kallikrein (Human)
- Sequence (P03952 20-390 S143N limits assumed): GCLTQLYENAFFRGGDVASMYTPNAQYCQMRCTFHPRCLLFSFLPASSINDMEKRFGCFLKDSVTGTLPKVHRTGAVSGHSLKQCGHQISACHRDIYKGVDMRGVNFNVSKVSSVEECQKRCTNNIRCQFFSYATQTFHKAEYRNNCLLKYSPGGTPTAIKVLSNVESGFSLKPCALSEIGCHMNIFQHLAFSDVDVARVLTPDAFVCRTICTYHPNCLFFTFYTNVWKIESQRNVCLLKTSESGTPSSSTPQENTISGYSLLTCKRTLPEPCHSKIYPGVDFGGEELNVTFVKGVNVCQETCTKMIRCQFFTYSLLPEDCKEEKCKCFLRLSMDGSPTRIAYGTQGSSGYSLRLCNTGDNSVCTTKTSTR
- Sequence (P03952 391-638 limits assumed): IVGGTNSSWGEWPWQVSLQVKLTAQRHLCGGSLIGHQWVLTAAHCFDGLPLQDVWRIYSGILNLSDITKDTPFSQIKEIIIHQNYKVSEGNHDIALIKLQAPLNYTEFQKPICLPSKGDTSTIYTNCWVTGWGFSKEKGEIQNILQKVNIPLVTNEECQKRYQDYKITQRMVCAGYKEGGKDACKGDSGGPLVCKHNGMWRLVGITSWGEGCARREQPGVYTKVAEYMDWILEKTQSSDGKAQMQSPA
- assay: Inhibitory Activity Assay
readout.kind: EC50

COC(=O)c1cnn(-c2cc(C3CC3)cn3cc(Cn4cc(C(=O)NCc5ncn6ccc(Cl)c(F)c56)nn4)nc23)c1 | < 1 nM
CCOC(COCc1cc(C2CC2)cn2cc(Cn3cc(C(=O)NCc4ncn5ccc(Cl)c(F)c45)nn3)nc12)OCC | < 1 nM

For the compound `O=C(NCc1ncn2ccc(Cl)cc12)c1cnn(Cc2cn3ccc(C4CC4)c(F)c3n2)c1` , report EC50.
< 1 nM

* * *

Catalogue of compounds with associated pEC50
- tgt: Plasma kallikrein (Human)
- assay: Inhibitory Activity Assay
pEC50: −log10 of the molar value.

Below, 2 compounds whose answers are already recorded.
CC(C)(C)OC(=O)C(C)(C)Oc1cc(C2CC2)cn2cc(Cn3cc(C(=O)NCc4ncn5ccc(Cl)c(F)c45)nn3)nc12 | > 9.00
O=C(NCc1ncn2ccc(Cl)c(F)c12)c1cn(Cc2cn3ccc(C4CC4)cc3n2)nn1 | > 9.00

Proceed to the following item.
For the compound CC(C)(C)[S+]([O-])NCCOCc1cc(C2CC2)cn2cc(Cn3cc(C(=O)NCc4ncn5ccc(Cl)c(F)c45)nn3)nc12 (stereo not drawn) , report pEC50.
> 9.00
